Recorded Ki values for a group of compounds are listed next.
- Test target: Human immunodeficiency virus type 1 protease (Human immunodeficiency virus 1, UniProt Q72874)
Endpoint label: Ki (nM)

[[record]]
given_smiles = "CC(=O)c1cccc(CN2C(=O)N(Cc3cccc(C(C)=O)c3)[C@H](Cc3ccc4c(c3)CCO4)[C@H](O)[C@@H](O)[C@H]2Cc2ccc3c(c2)CCO3)c1"
reading = 0.048

[[record]]
given_smiles = "Nc1cccc(CN2C(=O)N(Cc3cccc(N)c3)[C@H](Cc3ccc4c(c3)CCO4)[C@H](O)[C@@H](O)[C@H]2Cc2ccc3c(c2)CCO3)c1"
reading = 0.11

[[record]]
given_smiles = "CC(=O)c1cccc(CN2C(=O)N(Cc3cccc(C(C)=O)c3)[C@H](Cc3ccc4c(c3)N(C)CCO4)[C@H](O)[C@@H](O)[C@H]2Cc2ccc3c(c2)N(C)CCO3)c1"
reading = 0.08

[[record]]
given_smiles = "COc1cc(C[C@@H]2[C@H](O)[C@@H](O)[C@@H](Cc3cc(OC)cc(OC)c3)N(Cc3cccc(C(C)=O)c3)C(=O)N2Cc2cccc(C(C)=O)c2)cc(OC)c1"
reading = 0.4

[[record]]
given_smiles = "CC(=O)c1cc(CN2C(=O)N(Cc3ccc(F)c(C(C)=O)c3)[C@H](Cc3ccc4c(c3)OCO4)[C@H](O)[C@@H](O)[C@H]2Cc2ccc3c(c2)OCO3)ccc1F"
reading = 1.5

[[record]]
given_smiles = "CNc1cccc(CN2C(=O)N(Cc3cccc(NC)c3)[C@H](Cc3ccc4c(c3)CCO4)[C@H](O)[C@@H](O)[C@H]2Cc2ccc3c(c2)CCO3)c1"
reading = 0.2

